All values here come from the supplement of paper PMC10065799.

target: SHP2-C SH2; test: SH2 binding enrichment of the phosphorylated peptide, bacterial display (enrichment ratio); higher = better substrate or ligand; peptides without Tyr show the background;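 also: peptide library displayed on the E. coli surface as eCPX fusions, selected cells deep-sequenced, score is each peptide's frequency after selection divided by its frequency in the input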
# label = True if SH2 binding enrichment >= 0.7 else False

Some solved cases for reference:
sequence_data="YYHCTYKKRMI [CLEC12A_Y242]" assigned_label=True
sequence_data="RSSKTYLKTRS [LPL_Y329_M328T]" assigned_label=True
sequence_data="PPSGEYFGQCG [TRIP6_Y275]" assigned_label=True
sequence_data="PDGREYIFVDP [PDGFRA_Y572_H570R_YF]" assigned_label=False

q: Check if SH2 binding enrichment >= 0.7 (inclusive). Item: QNTADYYDLYG [PTPN11_Y62_G60A]
a: True

q: Check if SH2 binding enrichment >= 0.7 (inclusive). Item: LNTFHHAGVSA [POLR2A_Y1109_Y1109H]
a: False

q: Check if SH2 binding enrichment >= 0.7 (inclusive). Item: FITVGYVDDTQ [HLA-B_Y51_S48T]
a: True

q: Check if SH2 binding enrichment >= 0.7 (inclusive). Item: TCRPPYYHRNC [HGD_Y333_F329C]
a: True

q: Check if SH2 binding enrichment >= 0.7 (inclusive). Item: RSFSPCDFQPC [TNS1_Y796_Y796C_YF]
a: False

q: Check if SH2 binding enrichment >= 0.7 (inclusive). Item: KPVDTYYDSTR [DYNC2H1_Y2230_M2227V]
a: False

q: Check if SH2 binding enrichment >= 0.7 (inclusive). Item: SSLEDYVRETN [GIMAP6_Y176_G171S]
a: True
